B1: RSAD1 (parent)
chain: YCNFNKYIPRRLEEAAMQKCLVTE

- Variants of: B1
- PROTOCOL: protein stability index of a GFP-peptide fusion (GPS, HEK-293T) (PSI 1-6); higher = more stable;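 also: lentivirally expressed fusions sorted by FACS into six bins by GFP to DsRed ratio, PSI derived from sequencing read proportions per bin multiplied by bin number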
- RUN PARAMETERS: c terminus: a fixed tail appended
EXPERIMENTAL READOUT: protein stability index
Answers are plain numbers.

# count of solved cases: 5
- SEQ: "YCNFNKYIPRKLEEAAMQKCLVTE [R11K]"
  protein stability index: 2.14
- SEQ: "YCNFNKYIPSRLEEAAMQKCLVTE [R10S]"
  protein stability index: 1.48
- SEQ: "YCNFNKYIPRRLEEAACQKCLVTE [M17C]"
  protein stability index: 1.72
- SEQ: "YCNFNKYIPRRLEEAQMQKCLVTE [A16Q]"
  protein stability index: 2.23
- SEQ: "HCNFNKYIPRRLEEAAMQKCLVTE [Y1H]"
  protein stability index: 2.94

I would be grateful if you could provide protein stability index for each of the following entries.
1. YCNFNKYIPRRLEEAAMLKCLVTE [Q18L]
2. YCNFNKYIPRRLEEAAMQKCLTTE [V22T]
3. YCNFNKYIPRRLEEAAMQKCLATE [V22A]
4. YCNFNKYIPRRLEEAAMGKCLVTE [Q18G]
5. YCNFNKYIPRRLEEAAMQKCLVPE [T23P]
6. PCNFNKYIPRRLEEAAMQKCLVTE [Y1P]
7. YCNFNKYIPRRLEEAAMQKCLVRE [T23R]

1: 1.71; 2: 3.32; 3: 2.25; 4: 1.76; 5: 3.87; 6: 2.27; 7: 1.78
